From: ChEMBL document CHEMBL3108696

Molecular target: Broad substrate specificity ATP-binding cassette transporter ABCG2 (Homo sapiens, UniProt Q9UNQ0)
Sequence (Q9UNQ0 whole entry): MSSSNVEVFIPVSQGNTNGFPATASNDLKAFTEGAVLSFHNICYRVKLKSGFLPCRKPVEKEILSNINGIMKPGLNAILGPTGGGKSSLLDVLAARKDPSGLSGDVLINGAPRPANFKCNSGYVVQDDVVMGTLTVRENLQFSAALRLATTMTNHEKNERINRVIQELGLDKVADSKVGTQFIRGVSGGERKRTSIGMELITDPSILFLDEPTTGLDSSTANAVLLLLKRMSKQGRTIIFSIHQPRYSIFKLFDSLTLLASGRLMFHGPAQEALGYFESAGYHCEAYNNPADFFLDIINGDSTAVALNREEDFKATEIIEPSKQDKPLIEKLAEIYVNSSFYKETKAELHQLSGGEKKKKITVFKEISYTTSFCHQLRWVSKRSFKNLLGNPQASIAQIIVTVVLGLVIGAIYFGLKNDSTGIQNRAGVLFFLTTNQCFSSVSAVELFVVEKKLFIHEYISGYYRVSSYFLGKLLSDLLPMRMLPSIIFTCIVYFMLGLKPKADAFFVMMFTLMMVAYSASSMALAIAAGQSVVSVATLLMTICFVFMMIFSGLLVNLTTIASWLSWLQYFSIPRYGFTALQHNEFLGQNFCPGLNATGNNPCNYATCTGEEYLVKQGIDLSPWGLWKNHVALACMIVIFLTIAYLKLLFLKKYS
Test: Binding affinity to ABCG2 (unknown origin) expressed in HEK293 cells assessed as modulation of 5D3 binding at 5 uM after 45 mins by flow cytometric analysis relative to Ko143
Assay type: cell-based
Conditions: hek293, 0.75 h
measurement_type: Activity (%)

compound_string	unit_name	Activity
O=C(NCc1cn(CCc2c[nH]c3ccccc23)nn1)c1cc(=O)c2c(OCc3ccc(Br)cc3)cccc2o1	%	105.2
CN(CCc1cn(C)c2ccccc12)C(=O)c1cc(=O)c2c(OCc3ccc(Br)cc3)cccc2o1	%	98.9
Cn1cc(CCNC(=O)c2cc(=O)c3c(OCc4ccc(Br)cc4)cccc3o2)c2ccccc21	%	98
COc1ccc2[nH]cc(CCN(C)Cc3cc(=O)c4c(OCc5ccc(Br)cc5)cccc4o3)c2c1	%	102.5
CN(CCc1cn(C)c2ccccc12)C(=O)c1cc(=O)c2cc(OCc3ccc(Br)cc3)ccc2o1	%	72.1
COc1ccc2[nH]cc(CCNC(=O)c3cc(=O)c4cc(OCc5ccc(Br)cc5)ccc4o3)c2c1	%	99.9
O=C(NCc1cn(Cc2ccc(Br)cc2)nn1)c1cc(=O)c2c(OCc3ccc(Br)cc3)cccc2o1	%	91.8
COc1ccc2[nH]cc(CCNC(=O)c3cc(=O)c4c(OCc5ccc(Br)cc5)cccc4o3)c2c1	%	103.5
CN(CCc1c[nH]c2ccccc12)C(=O)c1cc(=O)c2cc(OCc3ccc(Br)cc3)ccc2o1	%	79.4
CN(CCc1c[nH]c2ccccc12)Cc1cc(=O)c2c(OCc3ccc(Br)cc3)cccc2o1.Cl	%	95.4
COc1ccc2[nH]cc(CCN(C)C(=O)c3cc(=O)c4c(OCc5ccc(Br)cc5)cccc4o3)c2c1	%	97.4
CN(CCc1c[nH]c2ccccc12)C(=O)c1cc(=O)c2c(OCc3ccc(Br)cc3)cccc2o1	%	95.9
COc1ccc2[nH]cc(CCNC(=O)c3cc(=O)c4ccc(OCc5ccc(Br)cc5)cc4o3)c2c1	%	90.1
COc1ccc2c(CCNC(=O)c3cc(=O)c4c(OCc5ccc(Br)cc5)cccc4o3)c[nH]c2c1	%	101
O=C(NCc1cn(Cc2ccccc2)nn1)c1cc(=O)c2c(OCc3ccc(Br)cc3)cccc2o1	%	95.4

----------
Target: UniProt Q9UNQ0
Sequence (Q9UNQ0 whole entry): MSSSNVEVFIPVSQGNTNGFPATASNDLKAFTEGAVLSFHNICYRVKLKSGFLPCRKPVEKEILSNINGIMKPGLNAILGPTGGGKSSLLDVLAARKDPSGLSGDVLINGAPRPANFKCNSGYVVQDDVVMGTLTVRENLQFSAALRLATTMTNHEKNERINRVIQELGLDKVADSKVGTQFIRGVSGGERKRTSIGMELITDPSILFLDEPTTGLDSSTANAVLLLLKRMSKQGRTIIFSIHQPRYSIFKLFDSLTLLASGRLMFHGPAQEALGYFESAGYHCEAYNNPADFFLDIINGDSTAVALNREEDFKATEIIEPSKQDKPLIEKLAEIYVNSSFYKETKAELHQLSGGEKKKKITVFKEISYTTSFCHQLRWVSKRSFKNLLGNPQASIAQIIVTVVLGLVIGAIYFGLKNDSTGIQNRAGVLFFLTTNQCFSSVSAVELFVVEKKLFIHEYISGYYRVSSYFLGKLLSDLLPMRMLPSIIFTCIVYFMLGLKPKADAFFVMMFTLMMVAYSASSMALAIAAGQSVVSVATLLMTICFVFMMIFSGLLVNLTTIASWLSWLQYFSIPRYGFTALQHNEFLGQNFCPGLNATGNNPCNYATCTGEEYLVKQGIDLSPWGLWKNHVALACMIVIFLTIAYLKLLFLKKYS
Test: Inhibition of ABCG2 (unknown origin)-mediated mitoxantrone efflux expressed in HEK293 cells at 5 to 10 uM after 30 mins by flow cytometric analysis relative to control
Format: cell-based
Settings: HEK293 cells expressing ABCG2, probe mitoxantrone, read-out: Imax
measurement_type: Emax at 0.5 h (%)
Unit % implied. Number only.

// below: answered compounds
compound_string	measurement_type	unit_name	value_reported
Cn1cc(CCNC(=O)c2cc(=O)c3c(OCc4ccc(Br)cc4)cccc3o2)c2ccccc21	Emax at 0.5 h	%	85
COc1ccc2c(CCNC(=O)c3cc(=O)c4c(OCc5ccc(Br)cc5)cccc4o3)c[nH]c2c1	Emax at 0.5 h	%	97
COc1ccc2[nH]cc(CCNC(=O)c3cc(=O)c4ccc(OCc5ccc(Br)cc5)cc4o3)c2c1	Emax at 0.5 h	%	80
CN(CCc1c[nH]c2ccccc12)C(=O)c1cc(=O)c2c(OCc3ccc(Br)cc3)cccc2o1	Emax at 0.5 h	%	105

Prompt line: Need Emax at 0.5 h, item `CN(CCc1cn(C)c2ccccc12)C(=O)c1cc(=O)c2c(OCc3ccc(Br)cc3)cccc2o1`
Response line: 88

Prompt line: Endpoint output: Emax at 0.5 h of `CN(CCc1c[nH]c2ccccc12)Cc1cc(=O)c2c(OCc3ccc(Br)cc3)cccc2o1.Cl` . Value?
Response line: 46

Prompt line: Entry `CN(CCc1cn(C)c2ccccc12)C(=O)c1cc(=O)c2cc(OCc3ccc(Br)cc3)ccc2o1` has what Emax at 0.5 h?
Response line: 50

Prompt line: Please look up its Emax at 0.5 h: `COc1ccc2[nH]cc(CCN(C)C(=O)c3cc(=O)c4c(OCc5ccc(Br)cc5)cccc4o3)c2c1`
Response line: 101

Prompt line: Reported Emax at 0.5 h, compound `O=C(NCc1cn(Cc2ccccc2)nn1)c1cc(=O)c2c(OCc3ccc(Br)cc3)cccc2o1` : ____
Response line: 78

Prompt line: For the compound shown here, `O=C(NCc1cn(CCc2c[nH]c3ccccc23)nn1)c1cc(=O)c2c(OCc3ccc(Br)cc3)cccc2o1` , give the reported Emax at 0.5 h.
Response line: 87

Prompt line: Quick one: Emax at 0.5 h for `COc1ccc2[nH]cc(CCNC(=O)c3cc(=O)c4c(OCc5ccc(Br)cc5)cccc4o3)c2c1` ?
Response line: 98

----------
Target: Broad substrate specificity ATP-binding cassette transporter ABCG2 (Homo sapiens, UniProt Q9UNQ0)
Sequence (Q9UNQ0 whole entry): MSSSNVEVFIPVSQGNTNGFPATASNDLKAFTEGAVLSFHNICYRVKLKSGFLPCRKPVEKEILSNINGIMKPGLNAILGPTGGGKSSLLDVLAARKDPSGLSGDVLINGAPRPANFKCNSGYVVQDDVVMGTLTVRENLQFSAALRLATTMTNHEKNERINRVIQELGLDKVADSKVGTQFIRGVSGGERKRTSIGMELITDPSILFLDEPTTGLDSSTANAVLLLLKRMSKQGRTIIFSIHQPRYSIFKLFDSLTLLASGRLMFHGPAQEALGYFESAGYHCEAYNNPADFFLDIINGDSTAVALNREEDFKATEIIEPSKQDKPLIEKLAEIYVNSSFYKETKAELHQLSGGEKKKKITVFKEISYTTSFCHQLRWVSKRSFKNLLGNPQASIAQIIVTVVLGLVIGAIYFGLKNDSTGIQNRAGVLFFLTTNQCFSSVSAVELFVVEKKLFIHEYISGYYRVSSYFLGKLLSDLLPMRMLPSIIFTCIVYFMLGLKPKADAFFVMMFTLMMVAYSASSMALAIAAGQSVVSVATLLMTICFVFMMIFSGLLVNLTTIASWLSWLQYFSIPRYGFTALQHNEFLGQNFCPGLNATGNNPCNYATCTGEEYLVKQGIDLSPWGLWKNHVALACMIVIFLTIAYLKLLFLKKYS
Test: Inhibition of ABCG2 (unknown origin)-mediated BODIPY-prazosin efflux expressed in HEK293 cells at 1 to 5 uM after 30 mins by flow cytometric analysis
Type: cell-based
Conditions: hek293, 0.5 h

compound_string	inhibition (INH)
Cn1cc(CCNC(=O)c2cc(=O)c3c(OCc4ccc(Br)cc4)cccc3o2)c2ccccc21	Active
COc1ccc2c(CCNC(=O)c3cc(=O)c4c(OCc5ccc(Br)cc5)cccc4o3)c[nH]c2c1	Active
CN(CCc1c[nH]c2ccccc12)C(=O)c1cc(=O)c2c(OCc3ccc(Br)cc3)cccc2o1	Active
